Tested on: PPARg DBDmut:RXRa IVT, anti-PPARg (DBD mutation: PPARg1 K132A/R137A, NR concentration 270 nM, RXRa partner concentration 90 nM)
Procedure Summary: PBM binding z-score (relative to random genomic background probes); higher = stronger binding; sequences stand for … in GC…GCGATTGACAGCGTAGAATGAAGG
Please provide measured PBM binding z-score for the entries that follow.
One number for each entry.

The following sequences have reported results that may help.
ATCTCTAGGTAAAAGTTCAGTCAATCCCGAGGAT: 1.46
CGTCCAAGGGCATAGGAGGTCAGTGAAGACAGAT: -0.528
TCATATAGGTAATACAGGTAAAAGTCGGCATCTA: 1.1

Give PBM binding z-score for all sequences that follow.
1. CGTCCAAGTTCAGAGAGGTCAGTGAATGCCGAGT
2. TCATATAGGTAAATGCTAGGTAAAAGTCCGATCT
3. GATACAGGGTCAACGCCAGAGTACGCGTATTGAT

Ans.
-0.268
0.817
0.296
